Provide the reported EC50 of each item.
test target: Motilin receptor (Oryctolagus cuniculus)
assay method text: Agonist activity at motilin receptor in rabbit smooth muscle assessed as increase of muscle contraction
Assay type: functional
Give your result in nM as a bare value.

Report EC50 for CC[C@H]1OC(=O)[C@H](C)[C@@H](O[C@@H]2C[C@@](C)(OC)[C@@H](O)[C@H](C)O2)[C@H](C)[C@@H](O[C@@H]2O[C@H](C)C[C@H](N(C)C[C@H](C)O)[C@H]2O)[C@](C)(O)C[C@@H](C)[C@H](O)[C@H](C)[C@@H](O)[C@]1(C)O please.
360

Report EC50 for CC[C@H]1OC(=O)[C@H](C)[C@@H](O[C@@H]2C[C@@](C)(OC)[C@@H](O)[C@H](C)O2)[C@H](C)[C@@H](O[C@@H]2O[C@H](C)C[C@H](N(C)C[C@@H](C)O)[C@H]2O)[C@](C)(O)C[C@@H](C)[C@H](O)[C@H](C)[C@@H](O)[C@H]1C please.
280

Report EC50 for CC[C@H]1OC(=O)[C@H](C)[C@@H](O[C@@H]2C[C@@](C)(OC)[C@@H](O)[C@H](C)O2)[C@H](C)[C@@H](O[C@@H]2O[C@H](C)C[C@H](N(C)CCN)[C@H]2O)[C@](C)(O)C[C@@H](C)[C@H](O)[C@H](C)[C@@H](O)[C@]1(C)O please.
7300

Report EC50 for CC[C@H]1OC(=O)[C@H](C)[C@@H](O[C@@H]2C[C@@](C)(OC)[C@@H](O)[C@H](C)O2)[C@H](C)[C@@H](O[C@@H]2O[C@H](C)C[C@H](N(C)CC(C)(C)O)[C@H]2O)[C@](C)(O)C[C@@H](C)[C@H](O)[C@H](C)[C@@H](O)[C@]1(C)O please.
100

Report EC50 for CC[C@H]1OC(=O)[C@H](C)[C@@H](O[C@@H]2C[C@@](C)(OC)[C@@H](O)[C@H](C)O2)[C@H](C)[C@@H](O[C@@H]2O[C@H](C)C[C@H](N(C)C(C)C)[C@H]2O)[C@](C)(O)C[C@@H](C)[C@H](O)[C@H](C)[C@@H](O)[C@]1(C)O please.
260

Report EC50 for CC[C@H]1OC(=O)[C@H](C)[C@@H](O[C@@H]2C[C@@](C)(OC)[C@@H](O)[C@H](C)O2)[C@H](C)[C@@H](O[C@@H]2O[C@H](C)C[C@H](N(C)CCF)[C@H]2O)[C@](C)(O)C[C@@H](C)[C@H](O)[C@H](C)[C@@H](O)[C@]1(C)O please.
3800

Report EC50 for CC[C@H]1OC(=O)[C@H](C)[C@@H](O[C@@H]2C[C@@](C)(OC)[C@@H](O)[C@H](C)O2)[C@H](C)[C@@H](O[C@@H]2O[C@H](C)C[C@H](N(C)CCCO)[C@H]2O)[C@](C)(O)C[C@@H](C)[C@H](O)[C@H](C)[C@@H](O)[C@]1(C)O please.
700

Report EC50 for CC[C@H]1OC(=O)[C@H](C)[C@@H](O[C@@H]2C[C@@](C)(OC)[C@@H](O)[C@H](C)O2)[C@H](C)[C@@H](O[C@@H]2O[C@H](C)C[C@H](N(C)CCO)[C@H]2O)[C@](C)(O)C[C@@H](C)[C@H](O)[C@H](C)[C@@H](O)[C@]1(C)O please.
210

Report EC50 for CC[C@H]1OC(=O)[C@H](C)[C@@H](O[C@@H]2C[C@@](C)(OC)[C@@H](O)[C@H](C)O2)[C@H](C)[C@@H](O[C@@H]2O[C@H](C)C[C@H](N(C)CC(C)(C)O)[C@H]2O)[C@](C)(O)C[C@@H](C)[C@H](O)[C@H](C)[C@@H](O)[C@H]1C please.
100

Report EC50 for CC[C@H]1OC(=O)[C@H](C)[C@@H](O[C@@H]2C[C@@](C)(OC)[C@@H](O)[C@H](C)O2)[C@H](C)[C@@H](O[C@@H]2O[C@H](C)C[C@H](N(C)C(C)C)[C@H]2O)[C@](C)(O)C[C@@H](C)[C@H](O)[C@H](C)[C@@H](O)[C@H]1C please.
106

Report EC50 for CC[C@H]1OC(=O)[C@H](C)[C@@H](O[C@@H]2C[C@@](C)(OC)[C@@H](O)[C@H](C)O2)[C@H](C)[C@@H](O[C@@H]2O[C@H](C)C[C@H](N(C)CC3(C)CC3)[C@H]2O)[C@](C)(O)C[C@@H](C)[C@H](O)[C@H](C)[C@@H](O)[C@]1(C)O please.
2000

Report EC50 for CC[C@H]1OC(=O)[C@H](C)[C@@H](O[C@@H]2C[C@@](C)(OC)[C@@H](O)[C@H](C)O2)[C@H](C)[C@@H](O[C@@H]2O[C@H](C)C[C@H](N(C)C3CCC3)[C@H]2O)[C@](C)(O)C[C@@H](C)[C@H](O)[C@H](C)[C@@H](O)[C@H]1C please.
300

Report EC50 for CC[C@H]1OC(=O)[C@H](C)[C@@H](O[C@@H]2C[C@@](C)(OC)[C@@H](O)[C@H](C)O2)[C@H](C)[C@@H](O[C@@H]2O[C@H](C)C[C@H](N(C)C[C@H](C)O)[C@H]2O)[C@](C)(O)C[C@@H](C)[C@H](O)[C@H](C)[C@@H](O)[C@H]1C please.
180

Report EC50 for CC[C@H]1OC(=O)[C@H](C)[C@@H](O[C@@H]2C[C@@](C)(OC)[C@@H](O)[C@H](C)O2)[C@H](C)[C@@H](O[C@@H]2O[C@H](C)C[C@H](N(C)CC(C)C)[C@H]2O)[C@](C)(O)C[C@@H](C)[C@H](O)[C@H](C)[C@@H](O)[C@]1(C)O please.
363

###

Provide the reported pEC50 of each item.
test target: Motilin receptor (Oryctolagus cuniculus, UniProt A5A4K8)
Sequence (A5A4K8 whole entry): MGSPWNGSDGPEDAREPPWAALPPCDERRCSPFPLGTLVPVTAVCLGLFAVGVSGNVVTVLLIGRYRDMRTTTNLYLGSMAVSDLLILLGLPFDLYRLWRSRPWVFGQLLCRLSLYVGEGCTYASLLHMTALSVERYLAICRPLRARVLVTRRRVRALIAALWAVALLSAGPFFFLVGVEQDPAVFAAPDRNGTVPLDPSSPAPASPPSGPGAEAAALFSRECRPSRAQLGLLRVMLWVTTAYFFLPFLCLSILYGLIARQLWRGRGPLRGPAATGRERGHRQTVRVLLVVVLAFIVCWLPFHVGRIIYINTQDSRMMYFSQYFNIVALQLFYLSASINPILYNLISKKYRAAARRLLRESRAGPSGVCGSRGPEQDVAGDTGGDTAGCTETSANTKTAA
assay method text: Agonist activity at motilin receptor in rabbit smooth muscle assessed as increase of muscle contraction
// pEC50 is dimensionless: -log10 of concentration (M)

Report pEC50 for CC[C@H]1OC(=O)[C@H](C)[C@@H](O[C@@H]2C[C@@](C)(OC)[C@@H](O)[C@H](C)O2)[C@H](C)[C@@H](O[C@@H]2O[C@H](C)C[C@H](N(C)C3CCC3)[C@H]2O)[C@](C)(O)C[C@@H](C)[C@H](O)[C@H](C)[C@@H](O)[C@]1(C)O please.
6.46

Report pEC50 for CC[C@H]1OC(=O)[C@H](C)[C@@H](O[C@@H]2C[C@@](C)(OC)[C@@H](O)[C@H](C)O2)[C@H](C)[C@@H](O[C@@H]2O[C@H](C)C[C@H](N(C)C[C@@H](C)O)[C@H]2O)[C@](C)(O)C[C@@H](C)[C@H](O)[C@H](C)[C@@H](O)[C@]1(C)O please.
6.34

Report pEC50 for CC[C@H]1OC(=O)[C@H](C)[C@@H](O[C@@H]2C[C@@](C)(OC)[C@@H](O)[C@H](C)O2)[C@H](C)[C@@H](O[C@@H]2O[C@H](C)C[C@H](N(C)CC(O)CO)[C@H]2O)[C@](C)(O)C[C@@H](C)[C@H](O)[C@H](C)[C@@H](O)[C@]1(C)O (some centres not stated) please.
5.60

Report pEC50 for CC[C@H]1OC(=O)[C@H](C)[C@@H](O[C@@H]2C[C@@](C)(OC)[C@@H](O)[C@H](C)O2)[C@H](C)[C@@H](O[C@@H]2O[C@H](C)C[C@H](N(C)CCOC)[C@H]2O)[C@](C)(O)C[C@@H](C)[C@H](O)[C@H](C)[C@@H](O)[C@]1(C)O please.
5.11

Report pEC50 for C=C(C)CN(C)[C@H]1C[C@@H](C)O[C@@H](O[C@@H]2[C@@H](C)[C@H](O[C@@H]3C[C@@](C)(OC)[C@@H](O)[C@H](C)O3)[C@@H](C)C(=O)O[C@H](CC)[C@@](C)(O)[C@H](O)[C@@H](C)[C@@H](O)[C@H](C)C[C@@]2(C)O)[C@@H]1O please.
5.62

###

test target: hERG (KCNH2) (Homo sapiens, UniProt Q12809)
Sequence (Q12809 whole entry): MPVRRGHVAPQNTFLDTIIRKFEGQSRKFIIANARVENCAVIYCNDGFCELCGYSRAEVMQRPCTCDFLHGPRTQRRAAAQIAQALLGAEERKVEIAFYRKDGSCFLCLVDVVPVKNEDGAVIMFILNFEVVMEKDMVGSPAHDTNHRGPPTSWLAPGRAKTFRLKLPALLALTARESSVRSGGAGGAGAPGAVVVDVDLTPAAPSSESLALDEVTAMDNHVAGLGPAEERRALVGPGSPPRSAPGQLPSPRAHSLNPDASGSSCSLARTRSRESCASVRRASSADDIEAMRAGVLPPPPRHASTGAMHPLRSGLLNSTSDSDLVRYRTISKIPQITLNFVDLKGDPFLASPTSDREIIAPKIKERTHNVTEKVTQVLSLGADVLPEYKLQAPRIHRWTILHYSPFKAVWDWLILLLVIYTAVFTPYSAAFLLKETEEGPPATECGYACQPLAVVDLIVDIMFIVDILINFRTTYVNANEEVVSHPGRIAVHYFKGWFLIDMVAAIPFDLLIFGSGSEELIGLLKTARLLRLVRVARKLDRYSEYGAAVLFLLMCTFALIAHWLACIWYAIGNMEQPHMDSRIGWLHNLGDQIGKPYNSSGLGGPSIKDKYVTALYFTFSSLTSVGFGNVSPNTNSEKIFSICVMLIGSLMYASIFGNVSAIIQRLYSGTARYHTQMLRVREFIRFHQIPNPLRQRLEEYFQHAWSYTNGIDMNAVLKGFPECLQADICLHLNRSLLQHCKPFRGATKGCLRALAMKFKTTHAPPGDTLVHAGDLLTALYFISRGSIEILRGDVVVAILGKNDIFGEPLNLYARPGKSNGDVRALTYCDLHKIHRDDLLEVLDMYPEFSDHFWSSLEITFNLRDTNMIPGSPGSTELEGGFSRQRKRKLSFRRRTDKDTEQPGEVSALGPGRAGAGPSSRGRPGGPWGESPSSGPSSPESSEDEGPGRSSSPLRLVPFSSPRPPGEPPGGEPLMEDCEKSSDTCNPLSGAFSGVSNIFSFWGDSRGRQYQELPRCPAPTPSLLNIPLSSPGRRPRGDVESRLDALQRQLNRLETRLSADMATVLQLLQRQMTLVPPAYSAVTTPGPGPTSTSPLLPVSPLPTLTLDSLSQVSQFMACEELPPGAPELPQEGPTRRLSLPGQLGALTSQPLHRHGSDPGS
assay method text: Inhibition of human ERG expressed in HEK cells at 30 uM
Type: cell-based, HEK293
condition notes: HEK cells expressing human ERG
Provide the reported inhibition at 30 µM of each item.
Note to self: number, then unit, no commentary.

Query for hERG (KCNH2) (Homo sapiens, UniProt Q12809): what inhibition at 30 µM does the record show for CC[C@H]1OC(=O)[C@H](C)[C@@H](O[C@@H]2C[C@@](C)(OC)[C@@H](O)[C@H](C)O2)[C@H](C)[C@@H](O[C@@H]2O[C@H](C)C[C@H](N(C)CC(C)(C)O)[C@H]2O)[C@](C)(O)C[C@@H](C)[C@H](O)[C@H](C)[C@@H](O)[C@]1(C)O ?
25%

Query for hERG (KCNH2) (Homo sapiens, UniProt Q12809): what inhibition at 30 µM does the record show for CC[C@H]1OC(=O)[C@H](C)[C@@H](O[C@@H]2C[C@@](C)(OC)[C@@H](O)[C@H](C)O2)[C@H](C)[C@@H](O[C@@H]2O[C@H](C)C[C@H](N(C)C(C)C)[C@H]2O)[C@](C)(O)C[C@@H](C)[C@H](O)[C@H](C)[C@@H](O)[C@]1(C)O ?
80%

Query for hERG (KCNH2) (Homo sapiens, UniProt Q12809): what inhibition at 30 µM does the record show for CC[C@H]1OC(=O)[C@H](C)[C@@H](O[C@@H]2C[C@@](C)(OC)[C@@H](O)[C@H](C)O2)[C@H](C)[C@@H](O[C@@H]2O[C@H](C)C[C@H](N(C)C[C@H](C)O)[C@H]2O)[C@](C)(O)C[C@@H](C)[C@H](O)[C@H](C)[C@@H](O)[C@]1(C)O ?
16%

Query for hERG (KCNH2) (Homo sapiens, UniProt Q12809): what inhibition at 30 µM does the record show for CC[C@H]1OC(=O)[C@H](C)[C@@H](O[C@@H]2C[C@@](C)(OC)[C@@H](O)[C@H](C)O2)[C@H](C)[C@@H](O[C@@H]2O[C@H](C)C[C@H](N(C)C[C@@H](C)O)[C@H]2O)[C@](C)(O)C[C@@H](C)[C@H](O)[C@H](C)[C@@H](O)[C@H]1C ?
38%

Query for hERG (KCNH2) (Homo sapiens, UniProt Q12809): what inhibition at 30 µM does the record show for CC[C@H]1OC(=O)[C@H](C)[C@@H](O[C@@H]2C[C@@](C)(OC)[C@@H](O)[C@H](C)O2)[C@H](C)[C@@H](O[C@@H]2O[C@H](C)C[C@H](N(C)C3CCC3)[C@H]2O)[C@](C)(O)C[C@@H](C)[C@H](O)[C@H](C)[C@@H](O)[C@]1(C)O ?
38%

The reported numbers originate from ChEMBL document CHEMBL1255554.
